SYSTEM: Endoplasmic reticulum mannosyl-oligosaccharide 1,2-alpha-mannosidase (Homo sapiens, UniProt Q9UKM7)
Sequence (Q9UKM7 whole entry): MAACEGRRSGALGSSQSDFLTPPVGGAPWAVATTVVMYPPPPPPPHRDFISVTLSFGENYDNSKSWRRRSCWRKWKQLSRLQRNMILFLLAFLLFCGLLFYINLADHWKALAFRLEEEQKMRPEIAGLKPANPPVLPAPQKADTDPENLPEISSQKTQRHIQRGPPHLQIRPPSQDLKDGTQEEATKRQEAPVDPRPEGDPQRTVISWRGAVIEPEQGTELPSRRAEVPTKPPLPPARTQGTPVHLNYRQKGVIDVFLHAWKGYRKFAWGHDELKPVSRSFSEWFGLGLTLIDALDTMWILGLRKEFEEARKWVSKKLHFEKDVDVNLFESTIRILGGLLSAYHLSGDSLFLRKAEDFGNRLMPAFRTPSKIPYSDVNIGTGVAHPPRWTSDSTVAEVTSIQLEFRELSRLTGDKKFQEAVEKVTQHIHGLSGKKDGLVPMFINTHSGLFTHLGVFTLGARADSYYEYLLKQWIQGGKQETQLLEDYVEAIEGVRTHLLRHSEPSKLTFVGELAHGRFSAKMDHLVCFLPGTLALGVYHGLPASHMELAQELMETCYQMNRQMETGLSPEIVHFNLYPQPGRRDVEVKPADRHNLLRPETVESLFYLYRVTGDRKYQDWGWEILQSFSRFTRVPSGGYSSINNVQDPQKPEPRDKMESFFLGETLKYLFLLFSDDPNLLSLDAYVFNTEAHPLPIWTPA
Examples of compounds with documented Ki follow.
Hi! Could you send only the number? It should be in nM, unit omitted.

Some compounds with recorded Ki:
O[C@H]1[C@@H](O)CN[C@@H]1CN[C@@H](COCOc1cccc(Br)c1)c1ccccc1
310
O[C@H]1[C@@H](O)CN[C@@H]1CN[C@@H](c1ccccc1)[C@H](O)c1ccccc1
2620
O[C@H]1[C@@H](O)CN[C@@H]1CN[C@@H](COCOc1ccc(F)cc1)c1ccccc1
440

Request the reported Ki associated with O[C@H]1[C@@H](O)CN[C@@H]1CCNc1ccccc1
74300

What does the data say about its Ki? Entry: O[C@H]1[C@@H](O)CN[C@@H]1CN[C@@H](COCOc1ccc(Br)cc1)c1ccccc1
310

---

Tested on: Canavalia ensiformis
ASSAY_TEXT: Inhibition of jack bean alpha-mannosidase assessed as p-nitrophenylglycoside substrate hydrolysis at 1 mM
MEASURE_NAME: inhibition

Here is how some compounds turned out for inhibition.
OC[C@H](NC[C@H]1N[C@H](CO)[C@H](O)[C@@H]1O)c1ccccc1
98%
O[C@H]1[C@@H](O)CN[C@@H]1CN[C@@H](COCOc1ccc(F)cc1)c1ccccc1
92%
O=C(NC[C@H](NC[C@H]1NC[C@H](O)[C@@H]1O)c1ccccc1)c1ccccc1Br
89%

Attention now shifts to the item below.
Tell me the measured inhibition of O[C@H]1[C@@H](O)CN[C@@H]1CNCc1ccccc1 , please.
92%

Values were extracted from ChEMBL document CHEMBL2203079.
